- Tested on: COLO 205 colon
- assay_notes: NCI-60 one-dose screen, 48 h
- condition_set: 10 µM unless noted
Compounds without any hit were thinned out: in the full panel of roughly 83,000, 20% have a hit. Calls of active or inactive are those of the source. Rule for the calls: active = growth percent below 10; inactive = the rest.
Please state which outcome applies, choosing from active, inactive

Ask | Please let me know the test result on file for NC(=O)c1nc2c([nH]c1=O)CCCC2 .
Reply | inactive

Ask | What about Cc1ccc(-c2nnc(COc3ccc(-c4nnc(N)s4)cc3)o2)cc1 ?
Reply | inactive

Ask | What about CN1CCN(c2nc(-c3ccncc3)nc3sc4c(c23)CCCCCC4)CC1 ?
Reply | inactive

Ask | What about COc1cc(/C=C2\C(=O)N(c3c(Cl)cccc3Cl)c3ccccc32)cc(OC)c1O ?
Reply | inactive

Ask | What about COc1cccc(OC(=O)c2ccccc2)c1OC(=O)c1ccccc1 ?
Reply | inactive

Ask | What about Cc1nc2cc(Nc3nc(NCCO)nc(Nc4ccc(F)cc4)n3)ccc2n1Cc1ccccc1 ?
Reply | inactive

Ask | What about Cn1c2c(cc(S(=O)(=O)c3ccccc3)c1=O)CCc1c-2cnn1-c1cccc(Cl)c1 ?
Reply | inactive

Ask | What about COc1ccc(/C=C(\C#N)c2ccc(OC)cc2)cc1 ?
Reply | inactive

Ask | What about CCCCc1ccc(NC(=O)C(F)(F)F)cc1 ?
Reply | inactive

Ask | What about COc1cc(C2=NN(c3ccc(S(N)(=O)=O)cc3)C(c3ccc(Cl)cc3)C2)cc(OC)c1OC (stereo not drawn) ?
Reply | inactive

Ask | What about Oc1ccc(Cl)cc1CNc1nc2ccccc2[nH]1 ?
Reply | inactive

Ask | What about CCOc1ccc(/C=N\N2CCCCCC2)cc1OCC ?
Reply | inactive

Ask | What about COc1ccc2c(c1)c(=O)oc1c(C)c(OCC(C)=O)ccc12 ?
Reply | inactive

Ask | What about Cc1nc2cc(Nc3nc(NCCN)nc(Nc4ccc(F)cc4)n3)ccc2n1Cc1ccccc1 ?
Reply | inactive

Ask | What about Clc1ccc2c(N3CCN(c4ccnc(NC5CCCCC5)n4)CC3)ccnc2c1 ?
Reply | active

Ask | What about COc1ccc(-c2nc3sccn3c2/C=C/C(=O)c2cc(OC)c(OC)c(OC)c2)cc1OC ?
Reply | inactive

Ask | What about Cc1c(C(=O)Nc2nc(-c3ccccc3)cs2)nnn1-c1ccccc1Br ?
Reply | inactive

Ask | What about O=c1nc(NO)[nH]c(=O)n1Cc1ccc(F)cc1 ?
Reply | inactive

Ask | What about COc1ccc(S(=O)(=O)ON=C2C=C(C)C(=O)C(C)=C2)cc1 ?
Reply | inactive

Ask | What about COc1cc(NC(=O)COc2ccccc2)c(C(N)=O)cc1OC ?
Reply | active

Ask | What about Cc1nc(NN)c([N+](=O)[O-])c(NN)n1 ?
Reply | inactive

Ask | What about O=C1C(N2CCOCC2)=Cc2cccc3cccc1c23 ?
Reply | inactive

Ask | What about O=C(CCc1nnc2sc(/C=C\c3ccccc3)nn12)c1nc2ccccc2[nH]1 ?
Reply | inactive

###

- Tested on: MOLT-4 leukemia
- assay_notes: NCI-60 one-dose screen, 48 h (100 = growth as untreated, 0 = no growth, -100 = all killed)
- condition_set: 10 µM unless noted
Compounds without any hit were thinned out: in the full panel of roughly 83,000, 20% have a hit.
Rule: growth under 80% gives false, otherwise true.

Ask | Given O=C1c2ccccc2-c2cn(Cc3ccccc3)c3cccc(c23)C1c1cccnc1 (configuration not stated) , state whether its growth is at least 80%.
Reply | false

Ask | What about Cc1cc(=O)oc2c1ccc1oc(C(=O)c3ccccc3)c(C)c12 ?
Reply | false

Ask | What about CC(=O)OC[C@H](O)[C@@]1(O)CC[C@H]2[C@@H]3CCC4=CC(=O)CC[C@]4(C)[C@H]3[C@@H](O)C[C@@]21C ?
Reply | true

Ask | What about O=C(N/N=C/c1ccc(F)cc1)c1[nH]c2ccc(I)cc2c1-c1ccccc1 ?
Reply | false

Ask | What about COc1cc2oc(-c3ccc(O)cc3)cc(=O)c2c(O)c1I ?
Reply | true

Ask | What about COc1cc(C(=O)N(C(C)C)C2CCCCC2)cc(OC)c1OC ?
Reply | true

Ask | What about COc1ccc(-n2c(SCc3cc(OC)c(OC)c(OC)c3)nc3ccc(C)cc3c2=O)c(OC)c1 ?
Reply | false

Ask | What about Cc1cc(Cl)c2c(Cl)ccc(Cl)c2n1 ?
Reply | true

Ask | What about CC(=O)c1cc(C)c(OC(=O)c2ccccc2)c(C)c1 ?
Reply | true

Ask | What about COc1cccc(OC)c1OC(=O)c1ccccc1 ?
Reply | true

Ask | What about COc1ccc(Nc2nc(NCCNc3ccnc4cc(Cl)ccc34)nc(N3CCOCC3)n2)cc1 ?
Reply | false

Ask | What about OC[C@@H](O)[C@@H](O)CO ?
Reply | true

Ask | What about NC(=O)c1cc(I)ccc1NC(=O)COc1ccccc1 ?
Reply | false

Ask | What about COc1ccc(-n2ncc3c4nc(OC)c(S(=O)(=O)c5ccccc5)cc4ccc32)cc1 ?
Reply | true

Ask | What about CCN1CCN(C(=S)SCC(=O)Nc2nc3ccc(OC)cc3s2)CC1 ?
Reply | true

Ask | What about COc1nc2c(cc1S(=O)(=O)c1ccccc1)CCc1c-2cnn1-c1ccccc1 ?
Reply | false

Ask | What about Clc1ccc(Nc2nc(Nc3ccccc3)nc(Nc3ccc(-c4cc(-c5ccc(Cl)cc5)on4)cc3)n2)cc1 ?
Reply | false

Ask | What about COc1cc(-c2nc(SC(C)C)nc(Nc3ccccc3C)c2C#N)cc(OC)c1OC ?
Reply | true

Ask | What about COc1ccc(C2OCC(C)(C)CO2)cc1OC ?
Reply | true

Ask | What about NS(=O)(=O)c1ccc(C(=O)N/N=C(\CS(=O)(=O)c2ccccc2)c2cc3cc(Br)ccc3o2)cc1 ?
Reply | true

Ask | What about CCOC(=O)c1c(Cl)c2c(n1Cc1ccc(OC)cc1)-c1oncc1CCC2 ?
Reply | false
